B1: CCNC (parent)
chain: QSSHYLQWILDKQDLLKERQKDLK

Variants of: B1
run-description: protein stability index of a GFP-peptide fusion (GPS, HEK-293T) (PSI 1-6); higher = more stable;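 also: lentivirally expressed fusions sorted by FACS into six bins by GFP to DsRed ratio, PSI derived from sequencing read proportions per bin multiplied by bin number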
stated-conditions: c terminus: a fixed tail appended
Binary call on protein stability index: Criterion met from 3 upward, Criterion not met beneath that.

    mutant_designation           category
 0                 S2F  Criterion not met
 1                 W8L      Criterion met
 2                D14P      Criterion met
 3                 W8H      Criterion met
 4                K17Y  Criterion not met
 5                Q13A  Criterion not met
 6                D11E      Criterion met
 7                L10Y      Criterion met
 8                L16H      Criterion met
 9                Q13Y  Criterion not met
10                E18Q  Criterion not met
11                 S2V  Criterion not met
12                 Q7F  Criterion not met
13                 L6Y  Criterion not met
14                D11N  Criterion not met
15                 I9S      Criterion met
16                 S3F  Criterion not met
17                 I9C      Criterion met
18                 L6Q      Criterion met
19                 I9F      Criterion met
